Test: chemical genetic growth profiling, strain panel (AID 1159580);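 also: tested at 20 µM; growth read once vehicle control cultures reached saturation at 30 °C; lower values mean less growth of the strain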
Details: S. cerevisiae deletion strains, growth OD, locus YEL061C, strain CIN8
About 2,000 (36%) of roughly 5,500 compounds were called active. Inconclusive results (about 18%) are left out. Rule as the data show it: active = normalized growth mostly below about 0.91 (no sharp cut-off); inconclusive = no clear call, values can overlap the other calls; inactive = mostly above about 0.92. Some of the results follow.
Outcomes: True = active, False = inactive

molecule	label_class
CCSc1nnc(N)s1	False
CCCC(C)C1(CC)C(=O)N=C(S)NC1=O (stereo unspecified)	False
O=C(NNC(=S)Nc1ccc(F)cc1)c1ccccc1Cl	False
NC(=S)N/N=C\c1ccc(F)c(Cl)c1	True
Oc1c(I)cc(I)c2cccnc12	True
CCCCCCNC(=O)NCCCCCC	False
C=CCC1(C(C)CCC)C(=O)N=C(S)NC1=O (stereo unspecified)	False
CC1CCN(C(=O)CC#N)CC1	False
Nc1ncnc2c1ncn2[C@@H]1O[C@H](CO)[C@@H](O)[C@H]1O	False
O=C(OC1Cc2c(O)cc(O)cc2OC1c1cc(O)c(O)c(O)c1-c1c(C2Oc3cc(O)cc(O)c3CC2OC(=O)c2cc(O)c(O)c(O)c2)cc(O)c(O)c1O)c1cc(O)c(O)c(O)c1 (stereo unspecified)	False
C/C=C/c1ccc2c(c1)OCO2	False

Just for reference, PubChem BioAssay AID1159580 is where these values come from.
